Test system: K4 kissing-loop RNA reporter
Test Protocol: apparent KD of K4 kissing-loop reporter; higher = weaker reporter binding
Protocol Conditions: Eterna round: R107; input ligand: arginine 13.2 mM
Test Readout: apparent KD of K4 kissing-loop reporter

{"Polymer Sequence": "AGACUACUGACAGGAUAUAACAUAUUAGCUCGUAUACCAAAGGUAUACGAGCACCUUCUAGUGAUGUUAGAAGGGUCGGUAGUCA [Omei KL FMN B Exc B v1]", "Tested System": "K4 kissing-loop RNA reporter", "apparent KD of K4 kissing-loop reporter": "99.8 nM"}
{"Polymer Sequence": "UCUGUUUCGAUGGAUACCAGUCGGCGAAUCACAGCUAUUAGCCUAGUGAUGUUAGGAUCGGACCCUUGGCAGCCAAUGGAUGCGG [theeternabot_sameState_KL_Theo_B_14]", "Tested System": "K4 kissing-loop RNA reporter", "apparent KD of K4 kissing-loop reporter": "750 nM"}

Now for another entry.
Specify measured apparent KD of K4 kissing-loop reporter for UGUCAUUGGUCGGCCGCCACUUCAUAUAGAGUGAUGUUCUGAAAGACGGAUCGAAAGAUCUGUCGAAGGACCGGGACCGAUGACU [FiskerMod 12 - Jieux - Same State - Tryptophan B] . 810 nM

----------
Test system: K4 kissing-loop RNA reporter
Test Protocol: apparent KD of K4 kissing-loop reporter; higher = weaker reporter binding
Protocol Conditions: Eterna round: R107; input ligand: tryptophan 2.4 mM
Test Readout: apparent KD of K4 kissing-loop reporter (nM)
Please state the figure in nM; there is no need to write the unit.

Example entries begin here.
{"Polymer Sequence": "GGAUAGGACAGAGGAUAUGGCAGUCUACAAAGUAGGCUGAAAUAAAUCCUUGAAUGGAGUGAUGUUCCAGAAGGCUGUCCUAUCG [FmnBX 23 #SwitchBubble #StaticStem #Palindromic]", "apparent KD of K4 kissing-loop reporter [nM]": 172}
{"Polymer Sequence": "AUUAAUUUCAGAGGAUAUCGUAAUUUUAUUUUAUUUUUUCAUUUAUGCAGUGAUGUUGCAUUUAUUCGAGAAGGCUGAUUUAUAA [JR_SSFMNB_Sub021]", "apparent KD of K4 kissing-loop reporter [nM]": 50.7}
{"Polymer Sequence": "UUUUUAUUCAGUGAUGUUGAAUUUAUAUCAGAGGAUAUGCAUAAAAGCAGAAGGCUGAAAUACUAUACUUUAAUAAAUUAUAUUU [JR_SSFMNA_Sub017]", "apparent KD of K4 kissing-loop reporter [nM]": 217}
{"Polymer Sequence": "AAACGUUGGUGCGAUACCAGCUGCUCGGAAACGAGCUUGCUGGAGUGAUGUUCCAGGAAAAGCCCUUGGCAGCGCACCGACGAAA [MAT - Same State Theophlline B - Mod of Eli - D27]", "apparent KD of K4 kissing-loop reporter [nM]": 715}

Specify measured apparent KD of K4 kissing-loop reporter for GCAAACCUCAGUGAUGUUGAGAAAUCGGAAGGAGCGCGUGAAAACGCAGGUAGGUCGCCGACACAUGAAGUAUCUUCGUGUUUGC [Arginine A K4 22] . 243

----------
System: K4 kissing-loop RNA reporter
Test Protocol: apparent KD of K4 kissing-loop reporter; higher = weaker reporter binding
Protocol Conditions: Eterna round: R107; input ligand: arginine 13.2 mM
Test Readout: apparent KD of K4 kissing-loop reporter (nM)
Please state the figure in nM; there is no need to write the unit.

Find apparent KD of K4 kissing-loop reporter for UAACUGCAGUGAUGUUGCAGAUGUCCUGACUAGGAUAUCAGGAAACUGAGAAGGAGUCCCUUCUAAACAUCACAGAAGGAGGACA [[K1]-[K2]-[F1]'-[F1]-[F2]-[F2]'-[K]'-[F]''_Design2] on K4 kissing-loop RNA reporter and write it down. 415

Find apparent KD of K4 kissing-loop reporter for CAUGGAGUGAUGCUCCAUGAUCGGGCUUGGCAGGAUAUGGGAUUUUCCAGAAGGGUCGAUCCCAGCGAGUGAUGUUCGCUGGUCU [Exclusion FMN A GF 26] on K4 kissing-loop RNA reporter and write it down. 121

Find apparent KD of K4 kissing-loop reporter for UUAUUAAUCGCAGAUACCAGUCCAGAAUGAAUACUAUAGUGAUGUUAUAAUAAAGGGAAGGACCCUUGGCAGCUGUAAUAUAUUU [AstrosSsTheB#3] on K4 kissing-loop RNA reporter and write it down. 278

----------
System: K4 kissing-loop RNA reporter;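 also: bound reporter read as fluorescence of individual clusters on recovered sequencing chips by microscopy, with normalized cluster intensities fitted with a binding model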
Test Protocol: apparent KD of K4 kissing-loop reporter; higher = weaker reporter binding
Protocol Conditions: Eterna round: R107; input ligand: theophylline 20 uM
Classes (apparent KD of K4 kissing-loop reporter): lo = under 0.2 µM, mid = from 0.2 µM up to 0.4 µM, hi = 0.4 µM and over

{"Polymer Sequence": "UAAUCACUCGAACUGCAAGUACGAGUGGAACGAGGACCGGUACGGCCGCCACUCGAUAACUUGCAGUGAUGUUGCAAGUAAGAAU [(T)''-(K)'-(T)'-(T1)-(T2)-(K1)-(K2)_Design7]", "Label Value": "lo"}
{"Polymer Sequence": "GCCGUAGAUUGAAGGAGCGGGCCGUAGUGAUGUUACGCCAAGUUGUCUUUUAUUGAUGUGGCCCAGGUAGGUCGCAAUCUACGGC", "Label Value": "mid"}
{"Polymer Sequence": "CCUGCCAGCACGGCCGCCACUUCUAUUGUAUCUAUUUUUGUAAUCCUUUAGGAGUGAUGUUUUUAAAGGACCGGGUGAUGGCUGA [theeternabot_exclusion_KL_Trp_B_14]", "Label Value": "mid"}
{"Polymer Sequence": "GGGCUGGUGCUAGGAUAUGCGAUGAAUGCUCAGGAAACCUUGAGUCCGCAGUGAUGUUGCGGCACCGCAGAAGGAGCUUAGGCUC [Esbequ]", "Label Value": "mid"}
{"Polymer Sequence": "GGAUAGGAUAGAGGAUAUGGCUUAUGCAGAAAUAACUUAUUGUGUAAAUCCAUAGGGAGUGAUGUUCCAGAAGGCUGUCCUAUCG [MatMod 16 - Jieux - Exclusion - FMN B]", "Label Value": "mid"}
{"Polymer Sequence": "CCUGGCGAGGUAACGUGGAUAUCUCGUCGCAAGGAUAUCUGGAAACAGAGAAGGUGCUACAUUACCGGCAGUGAUGUUGCUGACC", "Label Value": "hi"}

Input CGCUUAGUGAUGUUUGAUUUGGCGCAUGCAGAGGAUAUAGGGUGCUUUAGAAGGCUGAGGAGUGCGCCGAGUGAUGUUCGGCGCU [Exclusion FMN A GF12] ; output its category lo

Input AGUGCCGAGUGUGAUACCAGCUUCAUGCAGUGAUGUUGCACACGAGUGAUGUUCGUCCGAGGCCCUUGGCAGCGCAGUCGCUCGA [Same State Theophylline B Gf 30] ; output its category hi

Input AGGAUGUAGUGAUGUUAUAUAAGAAGUAAACGAGGACCGGUACGGCCGCCACUCGAAGCGGCUACUAGCGCGUUGCGAGGUGUGC [ExTryptoA.Ce] ; output its category hi

Input UAGUCCGAGUGAUGGUCAUCACGUGGCGGGCGAGGACCGGUACGGCCGCCACUCGACUUUGCAGUGAUGUUGCAAACCGGACAAU [Exclusion - Tryptophan A (Freestyle 21)] ; output its category mid

Input AGACUACCACACUGUCAAUAGACAGUGAACUCGGAUAUGCUGAUAAGCAGAAGGAGUGAUGUUCCUAGGUAGUCAAUAAAAUAAU [FmnAX 13 C32] ; output its category mid

----------
Tested on: MS2 coat protein
Test Protocol: apparent KD of MS2 coat protein; higher = weaker reporter binding
Protocol Conditions: Eterna round: R107; input ligand: arginine 13.2 mM
Test Readout: apparent KD of MS2 coat protein (nM)
Please state the figure in nM; there is no need to write the unit.

{"Polymer Sequence": "GAGGUCCUGAGAGAUACCAGUGAGGCCACAUGAGGAUCACCCAUGUCCCUCACUCCGGCCCACCCUUGGCAGCUCGGAAGGUAAA [Exclusion Theophylline B GF 23]", "Output Unit": "nM", "apparent KD of MS2 coat protein": 14.9}
{"Polymer Sequence": "GAUUGGAUUUGAAGGAGCGUCGAAAAUGGGUAAACAUGAGGAUCACCCAUGUAAAGGGAACGACAGGUAGGUCGCAAAUUUAAUC [AstromonsSSArgB#31]", "Output Unit": "nM", "apparent KD of MS2 coat protein": 84.7}
{"Polymer Sequence": "AUACAUGAGGAUCACCCAUGUCAUUCAGAAGGAGCGUCAUUUUAGACAGGUAGGUCGCUGAUAGUAUUUUUAUACUUUAUGUUUA [JR_SSArginiA_Sub015]", "Output Unit": "nM", "apparent KD of MS2 coat protein": 19.5}
{"Polymer Sequence": "ACAUGAGGAUCACCCAUGUUGAACUACCAUCGAGGACCGGUACGGCCGCCACUCGCGUUCUCCUUAGCAUCAAGGUCCGCGAAAC [theeternabot_exclusion_MS2_Trp_A_1]", "Output Unit": "nM", "apparent KD of MS2 coat protein": 10.3}

Now for another entry.
Specify measured apparent KD of MS2 coat protein for GAUUGCAUCGAUUCUCCACUCGCACCUGAUACCAGCGAUAGAAUUCGCCCUUGGCAGCAGUACACAUGAGGAUCACCCAUGUUAU [theeternabot_exclusion_MS2_Theo_A_20] . 25.5
